# System: OVCAR-3 ovarian
# measurement notes: NCI-60 one-dose screen, 48 h
# assay conditions: 10 µM unless noted
About 83,000 compounds went through this panel and 20% of them were active in at least one assay; those are over-represented in the sample as a whole. Activity calls are given as the source filed them. The calls were made as follows: active = growth percent below 10; inactive = the rest.
Output constraint: value belongs to true (1) for active, false (0) for inactive

Here's what some known entries look like.
compound: CCCCCCCC(=O)SCC/C=C/[C@@H]1CC(=O)NCc2cccc(n2)CN(Cc2ccc(Cl)cc2)CC(=O)N[C@@H](C(C)C)C(=O)O1
classification: true (1)
--
compound: CCCCC[C@H]1C/C=C2/C(=O)C(Cl)=C[C@@H]2C/C=C\CCCC(=O)O[C@@H](CCCCC)C/C=C2/C(=O)C(Cl)=C[C@@H]2C/C=C\CCCC(=O)O1
classification: true (1)
--
compound: Cc1cccc(C)c1NC(=O)CSC(=S)N1CCCCC1
classification: false (0)
--
compound: Nc1nc(Br)nc2c1ncn2C1CC(O)C(CO)O1 (stereo not given)
classification: false (0)

Fill in: this test's call for `COC(=O)[C@]12CC[C@@H](C)[C@H](C)[C@@H]1C1=CC[C@@H]3[C@@]4(C)C(c5ncon5)=C[C@@](C)(CO)C4=CC[C@@]3(C)[C@]1(C)CC2` is ___
true (1)

Hi, do you know how `N#C/C(=C\c1ccc(-c2cccc(C(F)(F)F)c2)o1)c1nc(-c2ccco2)cs1` came out in this test?
false (0)

Which outcome was entered for the compound `NC(=O)NCC1CCCCC1` in this test?
false (0)

Please indicate how the test categorized OCC1OC(n2cnc3c(Cl)ncnc32)CC1O (stereo not given) .
false (0)

Call for entry COC(=O)[C@]12CC[C@@H](C)[C@H](C)[C@@H]1C1=CC[C@@H]3[C@@]4(C)C[C@@H](O)OC[C@](C)(C=O)C4C(=O)C[C@@]3(C)[C@]1(C)CC2 (stereo not given in full) :
true (1)

What classification did `CSc1ccc(N(C)c2nc(C)nc3c2CCC3)cc1` end up with in this test?
true (1)

Dear all, I need the recorded test outcome for `C[C@@H](C(=O)O)c1ccc2c3cc(Cl)ccc3n(Cc3cc(=O)oc4ccc(Cl)cc34)c2c1` , thank you.
false (0)
